This listing pairs binders with measured Hu Mono DR EC50.
- study system: cell surface PILRA on human monocytes (human, UniProt Q9UKJ1 20-303)
- Sequence (Q9UKJ1 20-303): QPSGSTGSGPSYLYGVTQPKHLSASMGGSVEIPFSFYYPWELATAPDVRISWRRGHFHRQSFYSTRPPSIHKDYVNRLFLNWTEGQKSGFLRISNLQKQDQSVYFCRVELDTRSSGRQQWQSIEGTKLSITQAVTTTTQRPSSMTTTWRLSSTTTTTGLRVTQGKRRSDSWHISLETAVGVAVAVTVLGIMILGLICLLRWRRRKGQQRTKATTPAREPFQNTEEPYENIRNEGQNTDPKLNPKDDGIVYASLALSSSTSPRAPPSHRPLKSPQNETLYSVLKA
- assay: cell-based or functional assay

binder | result
X14 (antibody, human IgG4, V domains shown, conditioned media in the HEK293F assays) VH: QVQLVQSGAEVKKPGSSVKVSCKASGYNFLHYDVNWVRQAPGQGLEWMGGIIPIFGTANYAQKFQGRVTITADESTSTAYMELSSLRSEDTAVYYCATAVGAGWFDTWGQGTLVTVSS VL: DIVMTQSPDSLAVSLGERATINCKSSQSVYFSPNNKNYLAWYQQKPGQPPKLLIYWASTRESGVPDRFSGSGSGTDFTLTISSLQAEDVAVYYCQQYFEEPYTFGQGTRLEIK | ~0.02 µg/mL
X20 (antibody, human IgG4, V domains shown, conditioned media in the HEK293F assays) VH: QVQLVQSGAEVKKPGSSVKVSCKASGYNFLHYDVNWVRQAPGQGLEWMGGIIPIFGTANYAQKFQGRVTITADESTSTAYMELSSLRSEDTAVYYCATAVGAGWFDPWGQGTLVTVSS VL: DIVMTQSPDSLAVSLGERATINCKSSQSVYFSENNKNYLAWYQQKPGQPPKLLIYWASTRESGVPDRFSGSGSGTDFTLTISSLQAEDVAVYYCQQYYEEPYTFGQGTRLEIK | ~0.02 µg/mL

Now consider a different binder.
Given the binder X18 (antibody, human IgG4, V domains shown, conditioned media in the HEK293F assays) VH: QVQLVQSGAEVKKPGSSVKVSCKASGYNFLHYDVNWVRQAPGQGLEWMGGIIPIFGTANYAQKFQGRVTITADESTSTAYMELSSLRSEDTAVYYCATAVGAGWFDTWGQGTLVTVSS VL: DIVMTQSPDSLAVSLGERATINCKSSQSVWFDPNNKNYLAWYQQKPGQPPKLLIYWASTRESGVPDRFSGSGSGTDFTLTISSLQAEDVAVYYCQQYFEEPYTFGQGTRLEIK , write its reported Hu Mono DR EC50. ~0.02 µg/mL
